- Tested on: mice
- Assay Protocol: phenyl-benzoquinone (PBQ) writhing test
- Assay type: in vivo, mouse
- Condition Summary: sc, 0.25 h; mouse PBQ assay, s.c., 15 min post dose; table 6; read-out: Analgesic activity, s.c. ED50 at 15 min post dose
This section presents molecules with their documented ED50 values.
Please give a number only; it is taken to be in mg/kg.

Molecule: CNc1ccc(CCN2CCc3cc(OC)ccc3C2C)cc1.Cl (stereo not shown)
Result Units: mg/kg
Numeric Result: 6
//
Molecule: COc1cc2c(cc1OC)C(C)N(CCc1ccc(NC(C)=O)cc1)CC2.Cl (stereo not shown)
Result Units: mg/kg
Numeric Result: 21
//
Molecule: COc1cc2c(cc1OC)C(C)N(CCc1ccc(N(C)C)cc1)CC2.Cl.Cl (stereo not shown)
Result Units: mg/kg
Numeric Result: 27.3
//
Molecule: CC1c2cc(O)c(O)cc2CCN1CCc1ccc(N)cc1 (stereo not shown)
Result Units: mg/kg
Numeric Result: 25.4
//
Molecule: COc1cc2c(cc1OC)CN(CCc1ccc(O)cc1)CC2.Cl
Result Units: mg/kg
Numeric Result: 2.8

Qu. # get_value(readout= ED50, system= mice) for COc1cc2c(cc1OC)C(C)N(CCc1ccc(O)cc1)CC2.Cl (stereo not shown)
Ans. 5.8

Qu. # iterate: COc1cc2c(cc1OC)CN(CCc1ccc([N+](=O)[O-])cc1)CC2.Cl
Ans. 9

Qu. # iterate: COc1cc2c(cc1OC)CN(CCc1ccc(N)cc1)CC2.Cl.Cl
Ans. 2.9

Qu. # iterate: COc1cc2c(cc1OC)C(C)N(CCc1cccc(N)c1)CC2.Cl.Cl (stereo not shown)
Ans. 11.9

Qu. # iterate: COc1ccc2c(c1)CCN(CCc1ccc(NC=O)cc1)C2C (stereo not shown)
Ans. 3.5
